Biological target: hGLP-1R (Homo sapiens, UniProt P43220)
Sequence (P43220 24-463): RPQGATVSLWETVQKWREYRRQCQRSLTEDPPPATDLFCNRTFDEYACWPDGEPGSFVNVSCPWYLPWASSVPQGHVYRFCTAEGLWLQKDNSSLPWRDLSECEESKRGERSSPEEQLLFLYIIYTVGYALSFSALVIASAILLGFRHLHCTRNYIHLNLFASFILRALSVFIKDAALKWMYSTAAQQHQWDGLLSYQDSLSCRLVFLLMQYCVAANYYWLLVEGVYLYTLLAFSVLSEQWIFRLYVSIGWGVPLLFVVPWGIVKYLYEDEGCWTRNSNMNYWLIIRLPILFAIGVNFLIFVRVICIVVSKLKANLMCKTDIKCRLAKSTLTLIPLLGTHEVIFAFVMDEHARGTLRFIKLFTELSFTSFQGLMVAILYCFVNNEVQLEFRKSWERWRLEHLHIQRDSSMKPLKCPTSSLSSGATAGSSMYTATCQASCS
Experiment: cell-based or functional assay
Non-standard residues stand in square brackets, D forms with d. No end group written: not given here. αMePhe(2-F) = C[C@](N)(Cc1ccccc1F)C(=O)O; Aib = CC(C)(N)C(=O)O
ASSAY READOUT: Relative cAMP EC50
# include the unit after the value

The examples below pair each entry with its known result.
BINDER	Relative cAMP EC50
YXQGTFTSDXXQXLDXKAQXQFIQXLIEXGPSSGEPPPSGGGE (non-natural residues; lipidated Lys; C-terminal amide; synthetic construct; SITE 2: note = 2-Aminoisobutyric Acid; SITE 10: note = 3-(4-Pyridyl)-L-alanine; SITE 11: note = alpha-methyl-L-serine; SITE 13: note = alpha-methyl-leucine; SITE 16: note = L-ornithine; SITE 17: note = Lysine is chemically modified through conjugation of the epsilon-amino group) [Example 1183]	0.769 nM
YXQGTFTSDXSQXLDKKAQXAFIEYLIEAGPSSGAPPPSGSE (synthetic construct; SITE 2: note = 2-Aminoisobutyric Acid; SITE 10: note = 3-(4-Pyridyl)-L-alanine; SITE 13: note = alpha-methyl-leucine; SITE 17: note = Lysine is chemically modified through conjugation of the epsilon-amino group of the Lysine side chain with (gamma-Glu)2-CO-(CH2)16-CO2H; SITE 20:) [Example 1025]	2.45 nM
YXQGTFTSDXSQXLDXKAQXAFIEXLLEGGPSSGAPPPSGSEE (synthetic construct; SITE 2: note = 2-Aminoisobutyric Acid; SITE 10: note = 3-(4-Pyridyl)-L-alanine; SITE 13: note = alpha-methyl-leucine; SITE 16: note = L-ornithine; SITE 17: note = Lysine is chemically modified through conjugation of the epsilon-amino group of the Lysine side chain with (gamma-Gl)) [Example 946]	2.05 nM
YXQGTFTSDFSXXLDKKAQXAFIEYLLEGGPSSGAPPPGGSE (synthetic construct; SITE 2: note = 2-Aminoisobutyric Acid; SITE 12: note = L-ornithine; SITE 13: note = alpha-methyl-leucine; SITE 17: note = Lysine is chemically modified through conjugation of the epsilon-amino group of the Lysine side chain with (2-[2-(2-Amino-ethoxy)-ethoxy]-acetyl)-(gamma-Glu)) [Example 65]	4.21 nM
YXQGTXTSDXXIXLDXKAQXXFIEXLIEGGPSSGEPPPSEG (synthetic construct; SITE 2: note = 2-Aminoisobutyric Acid; SITE 6: note = alpha-methyl-2-fluoro-L-phenylalanine; SITE 10: note = 3-(4-Pyridyl)-L-alanine; SITE 11: note = alpha-methyl-L-serine; SITE 13: note = alpha-methyl-leucine; SITE 16: note = L-ornithine; SITE 17: note = Lysine is chemically mo) [Example 401]	0.213 nM

# Relative cAMP EC50 of YXQGTFTSDFSXXLDKKAQXAFIEYLLAGGPSSGAPPPSEG (synthetic construct; SITE 2: note = 2-Aminoisobutyric Acid; SITE 12: note = L-ornithine; SITE 13: note = alpha-methyl-leucine; SITE 17: note = Lysine is chemically modified through conjugation of the epsilon-amino group of the Lysine side chain with (2-[2-(2-Amino-ethoxy)-ethoxy]-acetyl)-(gamma-Glu)) [Example 60] = 1.93 nM

Lab note: YXQGTXTSDXSILLDKKAQXAFIEYLEEGGPSSGEPPPSGTGE (Aib, αMeF(2F), 4Pal; acylated K; C-terminal amide; synthetic construct; SITE 2: note = 2-Aminoisobutyric Acid; SITE 6: note = alpha-methyl-2-fluoro-L-phenylalanine; SITE 10: note = 3-(4-Pyridyl)-L-alanine; SITE 17: note = Lysine is chemically modified through conjugation of the epsilon-amino group of the Lysine side chain with (gamma-Glu)2-CO-(CH2)1) [Example 607] gave Relative cAMP EC50 of 1.15 nM

Looking up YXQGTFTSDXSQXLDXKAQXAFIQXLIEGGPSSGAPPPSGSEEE (non-natural residues (Aib, 4Pal, Orn, Me4Pal, αMeY); lipidated K; amide; synthetic construct; SITE 2: note = 2-Aminoisobutyric Acid; SITE 10: note = 3-(4-Pyridyl)-L-alanine; SITE 13: note = alpha-methyl-leucine; SITE 16: note = L-ornithine; SITE 17: note = Lysine is chemically modified through conjugation of the epsilon-amino group of the Lysine side chain with D-Glutami) [Example 1076] , I found its Relative cAMP EC50 recorded as 1.47 nM

Entry YXQGTFTSDXSXXLDXKAQXAFIEYLIAGGPSSGAPPPSGSEE (Lys acylated γGlu-C18 diacid; non-natural residues; C-amide; synthetic construct; SITE 2: note = 2-Aminoisobutyric Acid; SITE 10: note = 3-(4-Pyridyl)-L-alanine; SITE 12: note = L-ornithine; SITE 13: note = alpha-methyl-leucine; SITE 16: note = L-ornithine; SITE 17: note = Lysine is chemically modified through conjugation of the epsilon-amino group of the Lys) [Example 1063] ; Relative cAMP EC50 = 6.96 nM

Recorded result, YXQGTFTSDFSXXLDKKAQXAFIEYLLEGGPSSGAXPPGGS (Aib, Orn, αMeL, Hyp; AEEA-γGlu-C18 diacid on Lys; C-terminal amide; synthetic construct; SITE 2: note = 2-Aminoisobutyric Acid; SITE 12: note = L-ornithine; SITE 13: note = alpha-methyl-leucine; SITE 17: note = Lysine is chemically modified through conjugation of the epsilon-amino group of the Lysine side chain with (2-[2-(2-Amino-ethoxy)-ethoxy]-acetyl)-(gamma-Glu)) [Example 235] , Relative cAMP EC50: 3.55 nM

Consider YXQGTFTSDXSQXLDKKAQXAFIEXLLEGGPSSGAPPPSGSEE (synthetic construct; SITE 2: note = 2-Aminoisobutyric Acid; SITE 10: note = 3-(4-Pyridyl)-L-alanine; SITE 13: note = alpha-methyl-leucine; SITE 17: note = Lysine is chemically modified through conjugation of the epsilon-amino group of the Lysine side chain with (gamma-Glu)2-CO-(CH2)16-CO2H; SITE 20:) [Example 945] . Its measured Relative cAMP EC50 is 3.9 nM

The recorded Relative cAMP EC50 for Y[Aib]QGT[αMePhe(2-F)]TSDYSILLDAKAFIEYLEEGGPSSGAPPPSEG-NH2 (not fully specified (residue 17)) [Example 410] is 0.354 nM

YXQGTFTSDXSQXLDXKAQXQFIEYLLAGGPSSGAPPPSGSEE (synthetic construct; SITE 2: note = 2-Aminoisobutyric Acid; SITE 10: note = 3-(4-Pyridyl)-L-alanine; SITE 13: note = alpha-methyl-leucine; SITE 16: note = L-ornithine; SITE 17: note = Lysine is chemically modified through conjugation of the epsilon-amino group of the Lysine side chain with (gamma-Gl)) [Example 1006] yielded Relative cAMP EC50 of 5.12 nM

src = patent US20240270821A1
